- tested.target: S protein of the novel coronavirus SARS-CoV-2 (SARS-CoV-2, UniProt P0DTC2 14-1273)
- test.name: cell-based or functional assay
recorded.endpoint: IC50 for neutralizing SARS-CoV-2 pseudovirus (Huh-7 cells, luciferase)

Known IC50 for neutralizing SARS-CoV-2 pseudovirus (Huh-7 cells, luciferase) results, listed for orientation:
ABU-174 (antibody, V domains shown) VH: QVQLQQWGAGLLKPSETLSLTCAVYGGSFSDYYWNWIRRPPGKGLEWIGEITHSGSTNYNPSLKSRVTISVDTSKNQFSLKLSSVTAADTAVYYCARGQGYGRVLLWFGEWGQGTLVTVSS VL: EIVLTQSPATLSLSPGERATLSCRASQSVSTYLAWYQQKPGQAPRLLIYDASNRATGIPARFSGSGSGTDFTLTISSLEPEDFAVYYCQQRSNWITFGQGTRLEIK ... < 0.1 µg/mL
ABU-290 (antibody, V domains shown) VH: QVQLVQSGAEVKKPGASVKVSCKASGFTFGRHGITWVRQAPGQGLEWMGWISTYSGNTNYAQNLQGRVTMTTDTSTNTAYMELRSLFFDDTAVYYCAKAVSGWPIYFDAWGQGTLVTVSS VL: EIVMTQSPATLSVSPGERVTLSCRASQSINRNLAWYQQKPGQAPRLLVYDASTRAPGIPTRVSGSGSGTDFTLTISSLQSEDFAVYYCQQYNNWPPITFGQGTRLEIQ ... < 0.1 µg/mL
ABU-368 (antibody, V domains shown) VH: EVQLVESGGGLIQPGGSLRLSCAASGFTVSSNYMSWVRQAPGKGLEWVSVIYSGGSTFYADSVKGRFTISRDNSKNTLYLQMNSLRAEDTAVYYCARDLGAYGMDVWGQGTTVTVSS VL: DIQLTQSPSFLSASVGDRVTITCRASQGISSYLAWYQQKPGKAPKLLIYAASTLQSGVPSRFSGSGSGTEFTLTISSLQPEDFATYYCQQLNSDLYTFGQGTKLEIK ... < 0.5 µg/mL
ABU-356 (antibody, V domains shown) VH: EVQLVESGGGLIQPGGSLRLSCAASGFTVSSNYMNWVRQAPGKGLEWVSVIYSGGSTFYADSVKGRFTISRDNSKNTLYLQMNSLRAEDTAVYYCARDRVVYGMDVWGQGTTVTVSS VL: DIQMTQSPSSLSASVGDRVTITCQASQDIINYLNWYQQKPGKAPKLLIYGASNLETGVPSRFSGGGSGTDFTFTISSLQPEDIATYYCHQYDNLPPTFGQGTRLEIK ... < 0.1 µg/mL
ABU-376 (antibody, V domains shown) VH: EVQLVESGGGLVQPGGSLRLSCAASGLTVSSNYMSWVRQAPGKGLNWVSVIYSGGSTYYADSVKGRFTISRDNSKNTLYLEMNSLKPEDTAVYYCARLPYGMDVWGQGTTVTVSS VL: DIQMTQSPSSLSASVGDRVTITCQASQDIRNYLNWYQQKPGKAPKLLIHDASNLETGVPSRFIGSGSGTDFTFTISSLQPEDIATYYCQQYDNLPITFGQGTRLEIK ... < 0.1 µg/mL

Give IC50 for neutralizing SARS-CoV-2 pseudovirus (Huh-7 cells, luciferase) for each listed item.
1. ABU-359 (antibody, V domains shown) VH: EVQLVESGGGLVQPGGSLRLSCAASGFIVSSNYMTWVRQAPGKGLEWVSVIYSGGSTFYADSVKGRFTISRHNSKNTLFLQMNSLRAEDTAVYYCARDAQNYGMDVWGQGTTVTVSS VL: DIQMTQSPSSLSASVGDRVTITCRASQSISSYLNWYQQKPGKAPKLLIFAASSLQTGAPSRFSGSGSGTDFTLTISSLQPEDFATYYCQQSYSTPPYTFGQGTKLEIK
2. ABU-379 (antibody, V domains shown) VH: EVQLVESGGGLVQPGGSLRLSCAASGFIVSSNYMSWVRQAPGKGLEWVSVIYSGGSTYYADSVKGRFTISRDNSKNTLYLRMNSLRAEDTAVYYCARAPYCSSRSCETWGQGTLVTVSS VL: DIQMTQSPSSLSASVGDRVTITCQASQDIRNYLNWYQQKPGKAPNLLIYDASNLETGVPSRFSGSGSGTDFTFTINSLQPEDIATYYCQQYDNLPITFGQGTRLEIK
3. ABU-386 (antibody, V domains shown) VH: EVQLVESGGGLVQPGGSLRLSCAASGVTVSSNYMSWVRQAPGKGLEWVSAVYSGGSTYYADSVKGRFTISRHNSKNTLYLQMKSLRPEDTAIYYCARLINHYYDSSGDGGAFDIWGQGTMVTVSS VL: QSALTQPASVSGSPGQSITISCTGTSSDVGSYNLVSWYQQRPGKAPKLILYEVTKRPSGVSNRFSGSKSGNTASLAISGLQAEDEADYYCCSYAGSSTWVFGGGTKLTVL

Resp:
< 0.1 µg/mL
< 0.5 µg/mL
< 0.1 µg/mL

Source listed as patent US20230183322A1.
